Hi there, I'd appreciate the recorded collision cross section for every entry that follows.
assay: collision cross section of modified peptide (TIMS, N2, iRT-aligned); higher = larger / more extended gas-phase ion; conditions: charge state: 2; modification: Nitro (Y)
Reply with just the number (in Å²).

GVEAVGSYAENQR [_GVEAVGSY(Nitro (Y))AENQR_] yielded collision cross section of 377.43

TVTNAVVTVPAYFNDSQR [_TVTNAVVTVPAY(Nitro (Y))FNDSQR_] yielded collision cross section of 470.26

DLEEAEEYK [_DLEEAEEY(Nitro (Y))K_] yielded collision cross section of 368.75

GEYFGEK [_GEY(Nitro (Y))FGEK_] yielded collision cross section of 309.86

AIQLNPSYIR [_AIQLNPSY(Nitro (Y))IR_] yielded collision cross section of 380.21

VYVGNLGTGAGK [_VY(Nitro (Y))VGNLGTGAGK_] yielded collision cross section of 354.85

VIVGGSSEYK [_VIVGGSSEY(Nitro (Y))K_] yielded collision cross section of 344.24

LDYSDFQIVK [_LDY(Nitro (Y))SDFQIVK_] yielded collision cross section of 369.5

LYLPVQNK [_LY(Nitro (Y))LPVQNK_] yielded collision cross section of 340.84

VDATADYICK [_VDATADY(Nitro (Y))ICK_] yielded collision cross section of 358.43

LGDVYVNDAFGTAHR [_LGDVY(Nitro (Y))VNDAFGTAHR_] yielded collision cross section of 443.1

GYLGPEQLPDCLK [_GY(Nitro (Y))LGPEQLPDCLK_] yielded collision cross section of 396.71

FNALFAQGNYSEAAK [_FNALFAQGNY(Nitro (Y))SEAAK_] yielded collision cross section of 433.45

TSYAQHQQVR [_TSY(Nitro (Y))AQHQQVR_] yielded collision cross section of 366.98

AYILNLVK [_AY(Nitro (Y))ILNLVK_] yielded collision cross section of 333.68

YEATSVQQK [_Y(Nitro (Y))EATSVQQK_] yielded collision cross section of 342.71

DYGNSPLHR [_DY(Nitro (Y))GNSPLHR_] yielded collision cross section of 341.59

CSVLAAANPVYGR [_CSVLAAANPVY(Nitro (Y))GR_] yielded collision cross section of 387.22

IFDSEEILAGYK [_IFDSEEILAGY(Nitro (Y))K_] yielded collision cross section of 395.88

HIGFVYHPTK [_HIGFVY(Nitro (Y))HPTK_] yielded collision cross section of 375.77

LDLSSLAYSGK [_LDLSSLAY(Nitro (Y))SGK_] yielded collision cross section of 385.74

FTEYETQVK [_FTEY(Nitro (Y))ETQVK_] yielded collision cross section of 363.94

IYHPNVDK [_IY(Nitro (Y))HPNVDK_] yielded collision cross section of 340.06

VYSLFLDESR [_VY(Nitro (Y))SLFLDESR_] yielded collision cross section of 377.85

YTQVGPDHNR [_Y(Nitro (Y))TQVGPDHNR_] yielded collision cross section of 361.98

====

test: collision cross section of modified peptide (TIMS, N2, iRT-aligned); higher = larger / more extended gas-phase ion; details: charge state: 3; modification: hydroxyisobutyryl
Readout Type: collision cross section (Å²)
Reply with just the number (in Å²).

DSSPTTNSKLSALQR [_DSSPTTNSK(hydroxyisobutyryl)LSALQR_] yielded collision cross section of 502.1

SSGPGGQNVNKVNSK [_SSGPGGQNVNK(hydroxyisobutyryl)VNSK_] yielded collision cross section of 447.88

VLDSGAPIKIPVGPETLGR [_VLDSGAPIK(hydroxyisobutyryl)IPVGPETLGR_] yielded collision cross section of 522.22

TFGKAAGPSLSHTSGGTQSK [_TFGK(hydroxyisobutyryl)AAGPSLSHTSGGTQSK_] yielded collision cross section of 512.39

SITHSTVGSKGEK [_SITHSTVGSK(hydroxyisobutyryl)GEK_] yielded collision cross section of 446.16

ATVASSTQKFQDLGVK [_ATVASSTQK(hydroxyisobutyryl)FQDLGVK_] yielded collision cross section of 498.28

VSPASSVDSNIPSSQGYKK [_VSPASSVDSNIPSSQGYK(hydroxyisobutyryl)K_] yielded collision cross section of 562.43

ASDTSSETVFGKR [_ASDTSSETVFGK(hydroxyisobutyryl)R_] yielded collision cross section of 485.06

SPPLPEHQKIPCNSAEPK [_SPPLPEHQK(hydroxyisobutyryl)IPCNSAEPK_] yielded collision cross section of 544.57

====

assay: collision cross section of modified peptide (TIMS, N2, iRT-aligned); higher = larger / more extended gas-phase ion; conditions: charge state: 2; modification: GlyGly (K)
Hi there, I'd appreciate the recorded collision cross section for every entry that follows.
Reply with just the number (in Å²).

GADFLVTEVENGGSLGSKK [_GADFLVTEVENGGSLGSK(GlyGly (K))K_] yielded collision cross section of 505.48

IHVQSSSDSSDEPAEKR [_IHVQSSSDSSDEPAEK(GlyGly (K))R_] yielded collision cross section of 469.51

GSLGAQKLANTCFNEIEK [_GSLGAQK(GlyGly (K))LANTCFNEIEK_] yielded collision cross section of 500.39

SKHLQEQLNELK [_SK(GlyGly (K))HLQEQLNELK_] yielded collision cross section of 420.45

DTPTSAGPNSFNKGK [_DTPTSAGPNSFNK(GlyGly (K))GK_] yielded collision cross section of 413.5

LLEEEDSKLK [_LLEEEDSK(GlyGly (K))LK_] yielded collision cross section of 386.87

AAINQKLIETGER [_AAINQK(GlyGly (K))LIETGER_] yielded collision cross section of 412.96

DAEAAEATAEGALKAEK [_DAEAAEATAEGALK(GlyGly (K))AEK_] yielded collision cross section of 475

VGVEVPDVNIEGPEGKLK [_VGVEVPDVNIEGPEGK(GlyGly (K))LK_] yielded collision cross section of 464.33

GFALVGVGSEASSKK [_GFALVGVGSEASSK(GlyGly (K))K_] yielded collision cross section of 452.76

DLGKFQVATDALK [_DLGK(GlyGly (K))FQVATDALK_] yielded collision cross section of 422.76

VDIDVPDVNIEGPDAKLK [_VDIDVPDVNIEGPDAK(GlyGly (K))LK_] yielded collision cross section of 469.92

ATVASSTQKFQDLGVK [_ATVASSTQK(GlyGly (K))FQDLGVK_] yielded collision cross section of 480.31

GETASKLQSEISR [_GETASK(GlyGly (K))LQSEISR_] yielded collision cross section of 415.57

GTITVSAQELKDNR [_GTITVSAQELK(GlyGly (K))DNR_] yielded collision cross section of 442.89

VTLEVGKVIQQGR [_VTLEVGK(GlyGly (K))VIQQGR_] yielded collision cross section of 431.32

SKLLFSNTAAQK [_SK(GlyGly (K))LLFSNTAAQK_] yielded collision cross section of 396.71

GEVGAGAGPGAQAGPSAKR [_GEVGAGAGPGAQAGPSAK(GlyGly (K))R_] yielded collision cross section of 426.91

DFDTALKHYDK [_DFDTALK(GlyGly (K))HYDK_] yielded collision cross section of 400.17

PASGAGAGAGAGKR [_PASGAGAGAGAGK(GlyGly (K))R_] yielded collision cross section of 395.09

AAQASDLEKIHLDEK [_AAQASDLEK(GlyGly (K))IHLDEK_] yielded collision cross section of 469.33

VYIASSSGSTAIKK [_VYIASSSGSTAIK(GlyGly (K))K_] yielded collision cross section of 437.45

LLIVSTTPYSEKDTK [_LLIVSTTPYSEK(GlyGly (K))DTK_] yielded collision cross section of 461.81

TQAYQDQKPGTSGLR [_TQAYQDQK(GlyGly (K))PGTSGLR_] yielded collision cross section of 432.62

LFVGGIKEDTEEHHLR [_LFVGGIK(GlyGly (K))EDTEEHHLR_] yielded collision cross section of 499.18

LQAAYAGDKADDIQK [_LQAAYAGDK(GlyGly (K))ADDIQK_] yielded collision cross section of 455.93

ISSNFSSIIAEKLR [_ISSNFSSIIAEK(GlyGly (K))LR_] yielded collision cross section of 443.53

LGVATVAKGVCGACK [_LGVATVAK(GlyGly (K))GVCGACK_] yielded collision cross section of 453.34

SLKLNTAEDAK [_SLK(GlyGly (K))LNTAEDAK_] yielded collision cross section of 394.52

PSVGSQSNQAGQGKR [_PSVGSQSNQAGQGK(GlyGly (K))R_] yielded collision cross section of 441.17

IVFSGNLFQHQEDSKK [_IVFSGNLFQHQEDSK(GlyGly (K))K_] yielded collision cross section of 491.77

VQGGALEDSQLVAGVAFKK [_VQGGALEDSQLVAGVAFK(GlyGly (K))K_] yielded collision cross section of 504.45

SLFFGGKGAPLQR [_SLFFGGK(GlyGly (K))GAPLQR_] yielded collision cross section of 414.92

AGQKLIDVNHYAK [_AGQK(GlyGly (K))LIDVNHYAK_] yielded collision cross section of 433.04

LQDVSGQLSSSKK [_LQDVSGQLSSSK(GlyGly (K))K_] yielded collision cross section of 438.61

SGNLTEDDKHNNAK [_SGNLTEDDK(GlyGly (K))HNNAK_] yielded collision cross section of 432.48

FLQEFYQDDELGKK [_FLQEFYQDDELGK(GlyGly (K))K_] yielded collision cross section of 460.97

ANEKTESSSAQQVAVSR [_ANEK(GlyGly (K))TESSSAQQVAVSR_] yielded collision cross section of 467.32

LTEKELAEAASK [_LTEK(GlyGly (K))ELAEAASK_] yielded collision cross section of 404.34

DHLSDKESK [_DHLSDK(GlyGly (K))ESK_] yielded collision cross section of 353.15

GTISAPGKVVTAAAQAK [_GTISAPGK(GlyGly (K))VVTAAAQAK_] yielded collision cross section of 456.01

DSSPTTNSKLSALQR [_DSSPTTNSK(GlyGly (K))LSALQR_] yielded collision cross section of 434.5

ASDTSSETVFGKR [_ASDTSSETVFGK(GlyGly (K))R_] yielded collision cross section of 414.9

Where these numbers come from: the supplement of paper PMC10598134
